This collection of values is drawn from patent US20240376226A1.

Target: neutravidin (UniProt P02701)
Sequence (P02701 25-152): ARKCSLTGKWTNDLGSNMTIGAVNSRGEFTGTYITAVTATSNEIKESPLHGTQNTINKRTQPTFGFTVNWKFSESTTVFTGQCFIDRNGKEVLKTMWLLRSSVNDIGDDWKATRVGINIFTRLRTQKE
Assay: phage ELISA, neutravidin alone
Item-by-item account of NAv bkgd

[
  {
    "binder": "GGNCHDPDIPAYVLCS (peptide, not shown: large carriers) [Phage clone J479B08 displaying Peptide-26]",
    "NAv bkgd": 0.084
  },
  {
    "binder": "GGDSVCADPEVPICEI (peptide, not shown: large carriers) [Phage clone J476C07 displaying Peptide-19]",
    "NAv bkgd": 0.051
  },
  {
    "binder": "GGQGCGTIADPEPHCW (peptide, not shown: large carriers) [Phage clone J466C02 displaying Peptide-25]",
    "NAv bkgd": 0.061
  }
]

Exam item: Fill in reported NAv bkgd for this entry: GGLCMIGDWLPGDVCL (peptide, not shown: large carriers) [Phage clone J467D04 displaying Peptide-28]
Marked response: 0.058

Exam item: State, in one line, measured NAv bkgd of GGLCPINDWEPQDICW (peptide, not shown: large carriers) [Phage clone J467F08 displaying Peptide-27]
Marked response: 0.062

Exam item: Given GGEWCLFDPDVPTCQD (peptide, not shown: large carriers) [Phage clone J465F09 displaying Peptide-22] , respond with its NAv bkgd.
Marked response: 0.051

Exam item: Provide measured NAv bkgd value, entry: GGLGCNDIDPGEQCIV (peptide, not shown: large carriers) [Phage clone J465D07 displaying Peptide-23]
Marked response: 0.055

Exam item: Return the recorded NAv bkgd value; entry: GGIQCHDPDLPSPCYI (peptide, not shown: large carriers) [Phage clone J465E03 displaying Peptide-21]
Marked response: 0.052

Exam item: Tell us which NAv bkgd value is on record for GGMSDCGDPGVEICTH (peptide, not shown: large carriers) [Phage clone J457A04 displaying Peptide-20]
Marked response: 0.092

Exam item: Check the records and state NAv bkgd for GGLECFDPEIPEAFCI (peptide, not shown: large carriers) [Phage clone J466C07 displaying Peptide-24]
Marked response: 0.053
